- tested on: SARS-CoV-2 3CLpro (Severe acute respiratory syndrome coronavirus 2 (2019-nCoV) (SARS-CoV-2), UniProt P0DTD1)
Would you mind telling me the reported IC50 of each entry?
Kindly provide the numeric value in nM only, without the unit symbol.

Sure, the documented IC50 for O=C(Cc1cncc2ccccc12)N(Cc1cc(F)cc(Cl)c1)c1ccc(-c2c[nH]cn2)cc1 is 15

Sure, the documented IC50 for O=C(Cc1nnc2ccc(F)cn12)N(Cc1cc(F)cc(Cl)c1)c1ccc(-c2c[nH]cn2)cc1 is 77

Sure, the documented IC50 for O=C(Cc1cncc(F)c1)N(Cc1cncc(F)c1)c1ccc(C2CNC2)cc1 is 5220

Sure, the documented IC50 for O=C(Cc1nnc2ccccn12)N(Cc1cc(F)ccc1F)c1ccc(-c2c[nH]cn2)cc1 is 786

* * *

Would you mind telling me the reported pIC50 of each entry?
- tested on: SARS-CoV-2 3CLpro (Severe acute respiratory syndrome coronavirus 2 (2019-nCoV) (SARS-CoV-2), UniProt P0DTD1)
Convention used: pIC50 is expressed as -log10 of the molar concentration.

Sure, the documented pIC50 for O=C(Cc1cncc(Br)c1)N(Cc1cc(F)cc(F)c1)c1ccc(-c2c[nH]cn2)cc1 is 6.73

Sure, the documented pIC50 for O=C(Cc1cncc2ccccc12)N(Cc1cc(F)cc(F)c1)c1ccc(C2=CCNC2)cc1 is 6.86

Sure, the documented pIC50 for O=C(Cc1cccnn1)N(Cc1cc(F)cc(F)c1)c1ccc(-c2c[nH]cn2)cc1 is 6.30

Sure, the documented pIC50 for COc1cc(F)cc(CN(C(=O)Cc2cncc3ccccc23)c2ccc(-c3c[nH]cn3)cc2)c1 is 7.05

Sure, the documented pIC50 for O=C(Cc1noc2ccccc12)N(Cc1cc(F)cc(Cl)c1)c1ccc(-c2c[nH]cn2)cc1 is 6.08

Sure, the documented pIC50 for O=C(Cc1nnc2ccccn12)N(Cc1cccc(Cl)c1)c1ccc(-c2cn[nH]c2)cc1 is 6.44

Sure, the documented pIC50 for O=C(Cc1nncc2ccccc12)N(Cc1cc(F)cc(Cl)c1)c1ccc(C2CNC2)cc1 is 7.15

Sure, the documented pIC50 for O=C1Nc2ccccc2C1CC(=O)N(Cc1cc(F)cc(Cl)c1)c1ccc(-c2c[nH]cn2)cc1 (centres unmarked) is 5.21

* * *

Would you mind telling me the reported IC50 of each entry?
- tested on: SARS-CoV-2 3CLpro (Severe acute respiratory syndrome coronavirus 2 (2019-nCoV) (SARS-CoV-2), UniProt P0DTD1)
- Assay type: biochemical
Write the figure, then the unit, nothing else.

Sure, the documented IC50 for O=C(Cc1cncc2ccccc12)N(Cc1cncc(Cl)c1)c1ccc(-c2c[nH]cn2)cc1 is 0.101 µM

Sure, the documented IC50 for NC(=O)c1ccc(N(Cc2cc(F)cc(F)c2)C(=O)Cc2cncc3ccccc23)cc1 is 0.1 µM

Sure, the documented IC50 for O=C(Cc1cccnn1)N(Cc1cc(F)cc(Cl)c1)c1ccc(-c2c[nH]cn2)cc1 is 0.389 µM
